Data origin: PubChem BioAssay (NCATS)

assay: Quantitative High-Throughput drug screen in 47 multiple myeloma cell lines against the NCATS MIPE library collection: OCIMY7_PLB cell viability assay (AID 1918987); details: OCI-MY7 myeloma viability, CellTiter-Glo ATP, 48 h; note: potency is the fitted concentration of half-maximal effect; nearly all actives have a fitted effect of over 65% in size
Inconclusive results are not listed. Active and inactive are the calls of the source. Calls come from the whole dose curve; as a rule, active = well fitted cell-killing curve with a large enough effect; inconclusive = small, poorly fitted or top-dose-only effect, or effect the other way; inactive = no such curve, though single readings can be large or run the other way.
Valid outcomes are listed here; reply with one: T for active, F for inactive

[[record]]
compound = "CCOC(=O)C1=C(C)NC(=S)NC1c1cccc(O)c1 (centres undefined)"
assigned_class = "T"

[[record]]
compound = "OCCNC1CCCc2c1[nH]c1ccc(-c3ccccc3)cc21 (centres undefined)"
assigned_class = "T"

[[record]]
compound = "O=C(NC1CC1)c1cccc(-c2ccc3c(NC(=O)C4CC4)n[nH]c3c2)c1"
assigned_class = "T"

[[record]]
compound = "CN[C@@H]1C[C@H]2O[C@@](C)([C@H]1OC)n1c3ccccc3c3c4c(c5c6ccccc6n2c5c31)C(=O)N[C@H]4O"
assigned_class = "T"

[[record]]
compound = "O=C(Nc1cccc(Nc2ncc(Br)c(NCCc3cnc[nH]3)n2)c1)N1CCCC1"
assigned_class = "T"


*Q* Write down the call the test reported for this compound. Item: COC1=C2C[C@@H](C)C[C@H](OC)[C@@H](O)[C@@H](C)C=C(C)[C@H](OC(N)=O)[C@@H](OC)C=CC=C(C)C(=O)NC(=CC1=O)C2=O
*A* T

*Q* // outcome(item) with item = CC(C)n1cnc2c(NCCc3ccc(O)cc3)nc(-c3csc4ccccc34)nc21
*A* T

----------
experiment: qHTS of pediatric cancer cell lines to identify multiple opportunities for drug repurposing: Primary screen for SJ-GBM2 cells (AID 1347091); conditions: SJ-GBM2 viability, CellTiter-Glo luminescence, 48 h; series mostly up to 46 µM; note: potency is the fitted concentration of half-maximal effect
Inconclusive results are not listed. Calls of active or inactive are those of the source. The call rests on the fitted dose curve; in most records, active means well fitted cell-killing curve with a large enough effect; inconclusive means small, poorly fitted or top-dose-only effect; inactive means no such curve, though single readings can be large or run the other way.
quantity_measured: Potency

Examples from the recorded data:
[[record]]
substance_smiles = "Cc1cnc(NC(=O)Nc2cc(Br)c(C)cc2OC[C@@H]2CNCCO2)cn1"
experimental_result = "1180 nM (active)"

[[record]]
substance_smiles = "CC(C=CC(=O)NO)=C[C@@H](C)C(=O)c1ccc(N(C)C)cc1"
experimental_result = "1870 nM (active)"

[[record]]
substance_smiles = "CNC(=O)Nc1ccc(-c2nc(N3CC4CCC(C3)O4)c3cnn(C4CCC5(CC4)OCCO5)c3n2)cc1"
experimental_result = "29.6 nM (active)"

[[record]]
substance_smiles = "O=C(C=CC#Cc1cccc(NS(=O)(=O)c2ccccc2)c1)NO"
experimental_result = "1660 nM (active)"


Next compound, please.
*Q* # lookup: Potency of O=C(C=Cc1ccc(CN(CCO)CCc2c[nH]c3ccccc23)cc1)NO
*A* 118 nM (active)

----------
experiment: qHTS of pediatric cancer cell lines to identify multiple opportunities for drug repurposing: Primary screen for control Hh wild type fibroblast cells (AID 1347106); details: Hh wild-type fibroblast viability, CellTiter-Glo luminescence, 48 h; series mostly up to 46 µM; note: nearly all actives have a fitted effect of over 55% in size
Inconclusive results are not listed. Activity calls are given as the source filed them. Calls come from the whole dose curve; as a rule, active = well fitted cell-killing curve with a large enough effect; inconclusive = small, poorly fitted or top-dose-only effect; inactive = flat fitted curve, though single readings scatter. Residues, ends and D or L forms follow the SMILES beside them. *: point of attachment. Cbz = O=C(OCc1ccccc1)*
Respond using exactly one of the listed classes: T for active, F for inactive

*Q* Dear colleague, could you share the recorded outcome for CCCCCCCCCCCCCCCC(=O)OC[C@@H](NC(=O)C(Cl)Cl)[C@H](O)c1ccc([N+](=O)[O-])cc1 when you have a moment?
*A* F

*Q* Fill in: this test's call for CC(C)(C)c1nc2c3cc[nH]c(=O)c3c3cc(F)ccc3c2[nH]1 is ___
*A* F

*Q* Recorded test call requested for CC(C)C[C@@H](C=O)NC(=O)[C@H](CC(C)C)NC(=O)[C@H](CC(C)C)NC(=O)OCc1ccccc1 (Cbz-Leu-Leu-Leu-aldehyde)
*A* T

*Q* What was the test verdict on NC[C@H]1O[C@H](O[C@H]2[C@@H](O)[C@@H](O[C@H]3O[C@H](CO)[C@@H](O)[C@H](N)[C@@H]3O)[C@H](N)C[C@@H]2N)[C@H](N)C[C@H]1O ?
*A* F
